target: Neu5Gc(a2-3)Gal(b1-4)GlcNAc(b1-3)Gal(b1-4)GlcNAc(b1-2)Man(a1-3)[Neu5Gc(a2-3)Gal(b1-4)GlcNAc(b1-3)Gal(b1-4)GlcNAc(b1-2)Man(a1-6)]Man(b1-4)GlcNAc(b1-4)GlcNAc; experiment: glycan array binding signal (z-score within array); higher = stronger binding; details: glycan notation: IUPAC condensed, linker removed
The entries come from a sample that favours the strongest signals as a whole.
recordedMetric: glycan array binding signal (z-score)
Returns: the value as a bare number; no unit string appended.

INSERT INTO measurements (binder, recordednumber) VALUES
  ('Mermaid2 (Stilbonema majum) (protein) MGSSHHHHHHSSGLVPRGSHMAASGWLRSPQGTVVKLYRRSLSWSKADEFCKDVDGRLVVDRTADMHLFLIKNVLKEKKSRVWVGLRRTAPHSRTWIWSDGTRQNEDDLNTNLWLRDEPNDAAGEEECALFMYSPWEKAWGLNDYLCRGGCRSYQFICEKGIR', -0.883);

Lab note: next binder to report on.
GET /values?readout=glycan array binding signal (z-score)&item= ACA (Amaranthus caudatus) (protein) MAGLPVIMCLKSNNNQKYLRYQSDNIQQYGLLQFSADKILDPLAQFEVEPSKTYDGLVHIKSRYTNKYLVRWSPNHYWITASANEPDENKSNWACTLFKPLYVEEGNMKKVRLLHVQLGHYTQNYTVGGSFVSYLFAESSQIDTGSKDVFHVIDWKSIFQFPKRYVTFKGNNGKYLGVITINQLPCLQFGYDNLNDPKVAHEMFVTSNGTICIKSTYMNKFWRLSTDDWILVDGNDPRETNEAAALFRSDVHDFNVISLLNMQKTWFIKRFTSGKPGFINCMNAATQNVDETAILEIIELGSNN
1.25
